Ref: the supplement of paper PMC9112550

Test system: Escherichia coli TOP10;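 note: peptides expressed intracellularly from a pBAD plasmid library in pooled LB shake-flask culture, induced with 0.3% L-arabinose, DNA abundance read by NGS, three biological replicates, DESeq2 with apeglm shrinkage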
Experiment: shrunken log2 fold change of peptide-encoding DNA abundance (4.5 h post-induction vs induction); higher = less antimicrobial activity (less host growth inhibition)
Conditions: time post-induction: 4.5 h; library: site-saturation at positions 5, 18, 19, 20
Bucketed by reported shrunken log2 fold change, buckets being low: < -0.08; moderate: ≥ -0.08 and < 0.1; high: ≥ 0.1

Solved cases (2 shown):
* RRIRNRPPRLPRPRPRPKMYPRP | moderate
* RRIRLRPPRLPRPRPRPRWGPRP | high

Field: class (shrunken log2 fold change) — entry: RRIRCRPPRLPRPRPRPWHHPRP low

Field: class (shrunken log2 fold change) — entry: RRIRKRPPRLPRPRPRPVGSPRP high

Field: class (shrunken log2 fold change) — entry: RRIRDRPPRLPRPRPRPILDPRP moderate

Field: class (shrunken log2 fold change) — entry: RRIRDRPPRLPRPRPRPFKFPRP low

Field: class (shrunken log2 fold change) — entry: RRIRGRPPRLPRPRPRPLSAPRP high

Field: class (shrunken log2 fold change) — entry: RRIRARPPRLPRPRPRPDMMPRP high

Field: class (shrunken log2 fold change) — entry: RRIRTRPPRLPRPRPRPRNGPRP moderate

Field: class (shrunken log2 fold change) — entry: RRIRVRPPRLPRPRPRPYPSPRP low

Field: class (shrunken log2 fold change) — entry: RRIRKRPPRLPRPRPRPMSHPRP moderate
